assay: Plasma levels of Compound 1 over 72 h, suspension versus tablet, fasted or fed, in healthy volunteers; assay type: in vivo; settings: human, oral, 100 mg, 100 mg tablet, fed, 36 h post-dose, read-out: Plasma level, Mean
OBSERVED PROPERTY: concentration at 36 h (ng/mL)
Dear colleague, please return just the value in ng/mL, with no unit written.

(Q) Given the molecule NC(=O)N1CCC[C@@H](N(C(=O)NCc2ccc(OC(F)(F)F)cc2F)C2CC2)C1 , what is its reported concentration at 36 h?
(A) 90.1

====

experiment: Plasma levels of Compound 1 over 24 hours after 14 days of suspension administration in healthy volunteers; format: in vivo; settings: human, oral, 75 mg BID suspension, 3 h post-dose
OBSERVED PROPERTY: concentration at 3 h (ng/mL)
All answers are understood in ng/mL, so give the number only.

(Q) Item NC(=O)N1CCC[C@@H](N(C(=O)NCc2ccc(OC(F)(F)F)cc2F)C2CC2)C1 has what recorded concentration at 3 h?
(A) 2910

====

experiment: Plasma levels of Compound 1 over 72 h, suspension versus tablet, fasted or fed, in healthy volunteers; type: in vivo; conditions: human, oral, 100 mg, 100 mg tablet, fasted, 36 h post-dose, read-out: Plasma level, Mean
OBSERVED PROPERTY: concentration at 36 h (ng/mL)
Answer format: numeric, ng/mL implied, no suffix.

(Q) So what does the record say about concentration at 36 h for NC(=O)N1CCC[C@@H](N(C(=O)NCc2ccc(OC(F)(F)F)cc2F)C2CC2)C1 ?
(A) 59.5

====

test: Plasma levels of Compound 1 over 24 hours after 14 days of suspension administration in healthy volunteers; assay type: in vivo; details: human, oral, 25 mg BID suspension, 3 h post-dose
OBSERVED PROPERTY: concentration at 3 h (ng/mL)
Please reply with the bare figure in ng/mL and do not write the unit itself.

(Q) concentration at 3 h lookup needed for NC(=O)N1CCC[C@@H](N(C(=O)NCc2ccc(OC(F)(F)F)cc2F)C2CC2)C1 , thanks.
(A) 820

====

Assay: Plasma levels of Compound 1 over 24 hours after 14 days of suspension administration in healthy volunteers
Assay type: in vivo
Conditions: human, oral, 150 mg QD suspension, 8 h post-dose
Protocol: FIG. 2 is an assessment of the pharmacokinetics of Compound 1 in healthy volunteers over 24 hours after 14 days of administration of a suspension of the compound at three different doses (25 or 75 mg twice daily [BID] or 150 mg once daily [QD]). A suspension formulation of varying doses of Compound 1 (25 or 75 mg twice daily [BID] or 150 mg once daily [QD]) was administered to healthy volunteers. Plasma levels of Compound 1 over 24 hours after 14 days of administration were measured (FIG. 2). […]
OBSERVED PROPERTY: concentration at 8 h

(Q) Please look up its concentration at 8 h: NC(=O)N1CCC[C@@H](N(C(=O)NCc2ccc(OC(F)(F)F)cc2F)C2CC2)C1
(A) 1750 ng/mL

====

assay: Plasma levels of Compound 1 over 24 hours after 14 days of suspension administration in healthy volunteers; format: in vivo; conditions: human, oral, 150 mg QD suspension, 10 h post-dose
OBSERVED PROPERTY: concentration at 10 h (ng/mL)
Kindly answer with a numeric value in ng/mL, unit omitted.

(Q) Entry NC(=O)N1CCC[C@@H](N(C(=O)NCc2ccc(OC(F)(F)F)cc2F)C2CC2)C1 has what concentration at 10 h?
(A) 1360
